Test system: MDA MB 468
Test: Cytotoxicity propidium iodide assay, MDA MB 468
Format: cell-based
Settings: Homo sapiens; MDA MB 468 (breast), 48 hours treatment; read-out: IC50 Values in μM, C3b
ASSAY ENDPOINT: IC50

• CC(C)(C#N)c1ccc(-n2c(=O)n(CC#N)c3cnc4ccc(-c5cnc6ccccc6c5)cc4c32)cn1 = 0.45 µM
• Cn1c(=O)n(-c2ccc(C(F)(F)F)nc2Cl)c2c3cc(-c4cnc(N)c(C(F)(F)F)c4)ccc3ncc21 = 0.07 µM
• COc1ccc(-n2c(=O)n(C)c3cnc4ccc(-c5cnc6ccccc6c5)cc4c32)cn1 = 0.47 µM
• Cn1c(=O)n(-c2ccc(C(C)(C)C#N)nc2)c2c3cc(-c4cnc(N)c(C(F)(F)F)c4)ccc3ncc21 = 0.06 µM
• Cn1c(=O)n(-c2ccc(C#N)nc2)c2c3cc(-c4cccnc4)ccc3ncc21 = 0.065 µM
• Cn1c(=O)n(CCN2CCOCC2)c2c3cc(-c4cccnc4)ccc3ncc21 = 7 µM
• COc1ccc(-n2c(=O)n(C)c3cnc4ccc(-c5cnc(N)c(C(F)(F)F)c5)cc4c32)cn1 = 0.18 µM
• Cn1c(=O)n(-c2ccc(C(C)(C)C#N)nc2)c2c3cc(-c4cnc5ccccc5c4)ccc3ncc21 = 0.3 µM
• Cn1c(=O)n(-c2ccc(C(F)(F)F)nc2)c2c3cc(-c4cnc5ccccc5c4)ccc3ncc21 = 1.2 µM

====

System: MDA MB 231
Assay: Cytotoxicity propidium iodide assay, MDA MB 231
Assay type: cell-based
Conditions: Homo sapiens; MDA MB 231 (breast), 48 hours treatment; read-out: IC50 Values in μM, C3a
Method: The assay was designed as in the reference, Anticancer Drugs, 2002, 13, 1-8, the disclosure of which is incorporated herein by reference for the teaching of the assay. Cells from cell lines (ATCC) as mentioned in the table given below were seeded at a density of 3000 cells/well in a white opaque 96-well plate. […] For analysis, the plates were warmed to RT, allowed to thaw and were read in PoleStar fluorimeter with the fluorescence setting. […]
Grouping by measured IC50 is done with the following cut points: class A: < 0.04 µM; class B: ≥ 0.04 µM and < 0.4 µM; class C: ≥ 0.4 µM

* Cn1c(=O)n(-c2ccc(C(F)(F)F)nc2)c2c3cc(-c4cnc(N)c(C(F)(F)F)c4)ccc3ncc21 | class A
* Cn1c(=O)n(-c2ccc(C(F)(F)F)nc2)c2c3cc(-c4cnc5ccccc5c4)ccc3ncc21 | class C
* Cn1c(=O)n(-c2ccc(C#N)nc2)c2c3cc(-c4cccnc4)ccc3ncc21 | class A
* Cn1c(=O)n(-c2ccc(C(C)(C)C#N)nc2)c2c3cc(-c4cnc5ccccc5c4)ccc3ncc21 | class B
* COc1ccc(-n2c(=O)n(C)c3cnc4ccc(-c5cnc6ccccc6c5)cc4c32)cn1 | class B
* Cn1c(=O)n(CCN2CCOCC2)c2c3cc(-c4cnc5ccccc5c4)ccc3ncc21 | class C
* Cn1c(=O)n(-c2ccc(C(C)(C)C#N)nc2)c2c3cc(-c4cnc(N)c(C(F)(F)F)c4)ccc3ncc21 | class A
* CC(C)(C#N)c1ccc(-n2c(=O)n(CC#N)c3cnc4ccc(-c5cnc6ccccc6c5)cc4c32)cn1 | class B
* CC(C)(C#N)c1ccc(-n2c(=O)n(CC#N)c3cnc4ccc(-c5cnc(N)c(C(F)(F)F)c5)cc4c32)cn1 | class B
* Cn1c(=O)n(-c2ccc3ncccc3c2)c2c3cc(-c4cnc(N)c(C(F)(F)F)c4)ccc3ncc21 | class A
* Cn1c(=O)n(-c2ccc(C(F)(F)F)nc2Cl)c2c3cc(-c4cnc(N)c(C(F)(F)F)c4)ccc3ncc21 | class A
* Cn1c(=O)n(CCN2CCOCC2)c2c3cc(-c4cccnc4)ccc3ncc21 | class C
* COc1ccc(-n2c(=O)n(C)c3cnc4ccc(-c5cnc(N)c(C(F)(F)F)c5)cc4c32)cn1 | class B
